Tested on: PRP4
Conditions: concentration: 1 μM, replicates: in singlicate; n = 1;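 further: KINOMEscan kinase panel screen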
RESULT_TYPE: %Inh (%)
Numbers only, in %.

Look over these answered cases.
> print(dat)
                                   compound  result.type  test.result
1  COc1cc2nccc(Nc3ccc(OCc4ccc(NC(C)=O)cc4)cc3)c2cc1OC.Cl         %Inh           50
2  COc1ccc(-c2cc3c(C)nc(N)nc3n([C@H]3CC[C@H](OCCO)CC3)c2=O)cn1         %Inh            0
3  Cl.c1ccc(Cn2cnc3cc(Nc4ncnc5ccccc45)ccc32)cc1         %Inh           28
4   O=C(Nc1n[nH]c2cc(-c3ccccc3F)ccc12)C1CC1         %Inh            7
5  COc1cc(Nc2ccnc3ccc(C(F)(F)F)cc23)cc(OC)c1OC         %Inh           27

Batch request: %Inh for each of the following compounds.
1. COc1ccc(-n2cnc3c(N)ncnc32)cc1
2. Nc1n[nH]c2ncc(-c3ccccc3)cc12
3. CN1C(=O)C(Nc2cc(Cl)c(O)c(Cl)c2)=C(c2ccc(Cl)cc2)C1=O
4. Nc1ncnc2c1ncn2-c1cccc(F)c1
5. OCCCNc1nccc(-c2c(-c3cccc(C(F)(F)F)c3)nn3cc(C(F)(F)F)ccc23)n1
6. Nc1nccc2scc(-c3ccc4c(c3)CCN4C(=O)Cc3ccccc3)c12

Key:
[0, 24, 17, 0, 17, 13]

I need %Inh for every entry listed below, if you could help.
1. COc1ccc(-c2cc3c(C)nc(N)nc3n([C@H]3CC[C@H](O)CC3)c2=O)cn1
2. COc1cccc(-n2cnc3c(N)ncnc32)c1
3. FC(F)(F)c1ccc(-c2ncn(CCCN3CCOCC3)c2-c2ccncc2)cc1
4. CCC(=O)c1c(-c2ccccc2)c2cc(Cl)ccc2c(=O)n1Cc1cc(S(C)(=O)=O)n(CC(N)=O)n1
5. CCC(=O)c1c(-c2ccccc2)c2cc(Cl)ccc2c(=O)n1Cc1cc(S(C)(=O)=O)n(CC(F)F)n1
6. CCS(=O)(=O)c1ccc(OC)c(Nc2ncc(-c3ccc(F)cc3)o2)c1.Cl
7. COC(=O)c1c(-c2ccccc2)c2cc(Br)ccc2c(=O)n1Cc1ccc(NC(=O)CCC(=O)O)cc1

Key:
1. 0
2. 0
3. 0
4. 38
5. 6
6. 16
7. 0

Exercise: Which %Inh value is on record for COc1ccc(CNC(=O)NC2CCN(c3ccnc(Nc4ccc(F)cc4)n3)C2)cc1 (stereo not shown) ?
Key: 47

====

Record form. Attribute: %Inh. Fill in for each entry.
Tested on: MST1
Construct: gene STK4
Details: concentration: 1 μM, replicates: in singlicate; n = 1
Numbers only, in %.

Known %Inh results, listed for orientation:
> print(dat)
                                   molecule  result.type  test.result
1  Cl.c1ccc(Cn2cnc3cc(Nc4ncnc5ccccc45)ccc32)cc1 [GW272142]         %Inh            0
2  CCC(=O)c1c(-c2ccccc2)c2cc(Cl)ccc2c(=O)n1Cc1cc(S(C)(=O)=O)n(CC(N)=O)n1         %Inh            0
3  Nc1nccc2scc(-c3ccc4c(c3)CCN4C(=O)Cc3ccccc3)c12 [GSK2576924]         %Inh           37
4  Cc1ccccc1COc1cc(-n2cnc3cc(Cl)ccc32)sc1C(N)=O [GW813349]         %Inh            0
5  CCC(=O)c1c(-c2ccccc2)c2cc(Cl)ccc2c(=O)n1Cc1cc(C(=O)NC2CC2)n(C)n1         %Inh           12
6  COc1cc2nccc(Nc3cccc(Oc4ccccc4)c3)c2cc1OC.Cl [GW284543]         %Inh            1
7  COC(=O)c1c(-c2ccccc2)c2cc(Br)ccc2c(=O)n1Cc1ccc(S(C)(=O)=O)cc1         %Inh           10
8  O=c1cc(N2CCOCC2)nc2n(Cc3ccc(F)c(Cl)c3)ccn12 [GSK2297099]         %Inh            0
9  Cc1nn2c(=O)cc(N3CCOCC3)nc2n1Cc1cccc(Cl)c1Cl [GSK2342769]         %Inh            0

Proceeding to the next molecule to report its %Inh.
Exercise: Please give the measured %Inh for this molecule: OCCCNc1nccc(-c2c(-c3cccc(C(F)(F)F)c3)nn3cc(C(F)(F)F)ccc23)n1 [GW630813]
Key: 9
